- Test system: U2OS
- assay_comment: Incucyte cell viability with U2OS; further: unitless GR value; below 1 slowed growth and below 0 cell loss
- Assay type: toxicity, cell-based
- study_conditions: human, 6 h, 10 µM, compound concentration 10 uM, replicate number 1
measurement_name: Growth Rate

Q) May I ask what Growth Rate has been recorded for "CC(C)(O)CNC(=O)N1C(=O)N(c2cccc(C(F)(F)F)c2)C2=C(C(=O)CC2)[C@@H]1c1ccc(C#N)cc1" ?
A) 0.14

Q) May I ask what Growth Rate has been recorded for "Cc1c(CN2CCC3(CC2)CN(c2ncnc4sc(CC(F)(F)F)cc24)C3)ccc2c1cc(C#N)n2CC(N)=O" ?
A) 1

Q) May I ask what Growth Rate has been recorded for "COc1ccc(-c2csc(NC(=O)[C@H]3CCCCN3S(=O)(=O)c3ccc(C)cc3)n2)cc1" ?
A) 0.92

Q) May I ask what Growth Rate has been recorded for "CCCCCCCN(CCc1ccc(SC(C)(C)C(=O)O)cc1)C(=O)Nc1ccc(F)cc1F" ?
A) 0

Q) May I ask what Growth Rate has been recorded for "COc1ccccc1-c1cc(Nc2cccc(CS(N)(=O)=O)c2)ncn1" ?
A) 0.81

Q) May I ask what Growth Rate has been recorded for "c1ccc(C2CCN(c3cnc4c(N5CCOCC5)nccn34)CC2)cc1" ?
A) 0.91

Q) May I ask what Growth Rate has been recorded for "CS(=O)(=O)O.C[C@H](NC(=O)c1cnc2n1[C@](C)(Cc1ccc(C#N)cc1)C(=O)N2c1cc(Cl)c(F)c(Cl)c1)C(=O)NC1(c2ccccn2)CC1" ?
A) 0.8

Q) May I ask what Growth Rate has been recorded for "COc1cc2ncnc(Nc3ccc(F)c(Cl)c3)c2cc1OCCN(C)C[C@H](C)O" ?
A) 0.7

Q) May I ask what Growth Rate has been recorded for CCCCc1oc2ccccc2c1C(=O)c1cc(I)c(OCCN(CC)CC)c(I)c1.Cl [AMIODARONE HYDROCHLORIDE] ?
A) 0.43

Q) May I ask what Growth Rate has been recorded for "Cl.O=C(O)CCCN1CCC[C@H]1COc1ccc(Oc2ccc(Cl)cc2)cc1" ?
A) 0.84

Q) May I ask what Growth Rate has been recorded for "CCc1cncnc1N1CCN(Cc2nc3cc(C(F)(F)F)ccc3[nH]2)CC1" ?
A) 0.31

Q) May I ask what Growth Rate has been recorded for "Cl.Cl.c1ccc2c(-c3cnn4cc(-c5ccc(N6CCNCC6)cc5)cnc34)ccnc2c1" ?
A) -0.9

Q) May I ask what Growth Rate has been recorded for COc1cc(N)c(Cl)cc1C(=O)NC1CN2CCC1CC2.Cl (stereo not given) ?
A) 0.67

Q) May I ask what Growth Rate has been recorded for "Cl.Cl.Nc1nccc(-c2c(-c3ccc(F)cc3)ncn2C2CCCCC2)n1" ?
A) 0.19

Q) May I ask what Growth Rate has been recorded for "COc1cc(C(=O)NC2CCN(C)CC2)ccc1Nc1ncc2c(n1)N(C1CCCC1)CC(F)(F)C(=O)N2C" ?
A) 0.46

Q) May I ask what Growth Rate has been recorded for "CCN(CC)CCO[C@H]1CC[C@@]2(C)C(=CC[C@@H]3[C@@H]2CC[C@]2(C)C(=O)CC[C@@H]32)C1.Cl" ?
A) 0.77

Q) May I ask what Growth Rate has been recorded for "Cc1cn(CCN2CCN(c3ccccc3-c3cc(C#N)cc(C(=O)NCCCN4CCCC4)c3)CC2)c2ccccc12" ?
A) -0.93

Q) May I ask what Growth Rate has been recorded for "COc1cccc(CNc2ccc(S(=O)(=O)Nc3nc4ccccc4s3)cc2)c1O" ?
A) 0.62

Q) May I ask what Growth Rate has been recorded for "CCc1ncnc(N2CCN(C(C)=O)CC2)c1C#Cc1ccc(N)nc1.Cl.Cl" ?
A) 0.86

Q) May I ask what Growth Rate has been recorded for "Cc1cc2c(-c3ccco3)cnc(N[C@@H]3CCN(C)C[C@H]3C(=O)NC3CCCCC3)c2[nH]c1=O" ?
A) 0.92

Q) May I ask what Growth Rate has been recorded for "CNc1nc(-c2cc(C(=O)N3CCN(Cc4ccc(Cl)cc4)CC3)c(Cl)cn2)cs1" ?
A) -0.33

Q) May I ask what Growth Rate has been recorded for "O=C(O)[C@]1(Cc2cccc(Nc3nccs3)n2)CC[C@@H](Oc2cccc(Cl)c2F)CC1" ?
A) 0.98

Q) May I ask what Growth Rate has been recorded for "Cc1ccc(-c2cn3nc(C(=O)NC4(c5ccc(F)cc5)CN(C)C4)c(C(C)C)c3c(=O)[nH]2)cc1C" ?
A) 0.98

Q) May I ask what Growth Rate has been recorded for "CC(C)NC(=O)[C@H]1CCC[C@H]1Nc1nc(Nc2ccc(CN(C)C)cc2)ncc1Br.Cl" ?
A) 0.07

Q) May I ask what Growth Rate has been recorded for "Cc1onc(-c2ccc(F)cc2)c1COc1ccc(C(=O)N2CCS(=O)(=O)CC2)cn1" ?
A) 0.73

Q) May I ask what Growth Rate has been recorded for "O=C(NCC1(N2CCN(c3ccccc3)CC2)CCOCC1)c1cccnc1Sc1ccccc1" ?
A) 0.97

Q) May I ask what Growth Rate has been recorded for "CC1(C)CCN(C(=O)C2CN(c3c4c(nc5ccnn35)CCNCC4)C2)C1.O=C(O)C(F)(F)F" ?
A) 0.78

Q) May I ask what Growth Rate has been recorded for "O=C(NS(=O)(=O)N1CCC1)c1cc(C2CC2)c(OCC23CC4CC(CC(C4)C2)C3)cc1F" ?
A) 0.59

Q) May I ask what Growth Rate has been recorded for "CN(C)C(=O)Cn1cc(-c2ccc(-c3cncc4ccccc34)cc2)cn1" ?
A) 0.46

Q) May I ask what Growth Rate has been recorded for "Cc1nn(C)c(COc2ccc(N3CCN(S(=O)(=O)N(C)C)CC3)cc2)c1-c1cccc2c(CCCOc3cccc4ccccc34)c(C(=O)O)n(CCN3CCOCC3)c12" ?
A) 0.3

Q) May I ask what Growth Rate has been recorded for "CC(C)CC(=O)Nc1cncc(-c2ccc3[nH]nc(-c4nc5c(-c6cccc(F)c6)cncc5[nH]4)c3c2)c1" ?
A) -0.98

Q) May I ask what Growth Rate has been recorded for "CC(C)c1nc2c(c3c1[C@H](c1ccc(C(F)(F)F)cc1)OC31CCOCC1)[C@H](O)CC(C)(C)C2" ?
A) 0.38

Q) May I ask what Growth Rate has been recorded for COc1ccc(CC(=O)NC(N/C(=N/C#N)Nc2cccc3ncccc23)C(C)(C)C)cc1OC (stereo not given) ?
A) 0.08

Q) May I ask what Growth Rate has been recorded for "O=C(CCCCCCc1ccccc1)c1ncc(-c2ccccn2)o1" ?
A) 0.84

Q) May I ask what Growth Rate has been recorded for "CO[C@H](C)CN1CC[C@]2(C)c3cccc(O)c3C[C@H]1C2(C)C.Cl" ?
A) 0.44
